The measured values listed here are drawn from patent US9751867B2.

Tested on: NK Falkone corn seeds
Assay: Corn seed germination under cold stress (15° C.)
Type: in vivo
Details: Zea mays; rate 10 μM; 15° C.; negative value = faster germination; control 0.5% DMSO in water; read-out: T50 (% vs control)
Reported change in vivo at 10 µM values follow for various compounds

# COMPOUND, SUBJECT OF TEST, UNIT TAG, change in vivo at 10 µM
measured = [
    ("CC1=CC(O/C=C2/C(=O)NC3c4ccccc4CC23)N(C2CC2)C1=O (stereo not shown) [Ib-5]", "NK Falkone corn seeds", "%", -4.3),
    ("CC1=CC(O/C=C2/C(=O)NC3c4ccccc4CC23)N(CC(F)(F)F)C1=O (stereo not shown) [Ib-7]", "NK Falkone corn seeds", "%", -3),
    ("CC1=CC(O/C=C2/C(=O)NC3c4ccccc4CC23)N(c2ccccc2)C1=O (stereo not shown) [Ib-2]", "NK Falkone corn seeds", "%", -6.1),
    ("CON1C(=O)C(C)=CC1O/C=C1/C(=O)NC2c3ccccc3CC12 (stereo not shown) [Ib-3]", "NK Falkone corn seeds", "%", 3.4),
]
